experiment: Plasma concentration / pharmacokinetics of ropivacaine after intravenous administration; type: in vivo, rat; conditions: rat, in vivo, iv, 1 mg
readout.label: AUC (0-inf) (ng·h/mL)

1. CCCN1CCCC[C@H]1C(=O)Nc1c(C)cccc1C 875

Measured values drawn from patent US20130090516A1 for this set.
